test system: WPMY1-ACTB-RAB5A; assay: phenotypically active (imaging signature differs from DMSO and reproducible) at any of 0.3-9 uM (binary (1 = active, 0 = inactive)); higher = active; conditions: treatment time: 24 h
Structures can show the parent of a compound that is named as a salt.
MEASURED_PROPERTY: phenotypically active
Numbers only.

Below are worked cases with known answers.
COMPOUND	STUDY_SYSTEM	phenotypically active
CCC[C@H](N[C@@H](C)C(=O)N1[C@H](C(=O)O)C[C@@H]2CCCC[C@@H]21)C(=O)OCC [perindopril]	WPMY1-ACTB-RAB5A	0
COc1c2occc2cc2ccc(=O)oc12 [methoxsalen]	WPMY1-ACTB-RAB5A	0
CCN1CCN(c2ccc(Nc3cc(N(C)C(=O)Nc4c(Cl)c(OC)cc(OC)c4Cl)ncn3)cc2)CC1	WPMY1-ACTB-RAB5A	1
COCCc1ccc(OCC(O)CNC(C)C)cc1 (stereo not given) [metoprolol]	WPMY1-ACTB-RAB5A	0
CCCCNNC(=O)c1ccc(Br)cc1	WPMY1-ACTB-RAB5A	0
CN1C/C(=C/c2ccc(B(O)O)cc2)C(=O)/C(=C/c2ccc(B(O)O)cc2)C1	WPMY1-ACTB-RAB5A	1
C[C@H](NC(=O)[C@@H](O)c1cc(F)cc(F)c1)C(=O)N[C@@H]1C(=O)N(C)c2ccccc2-c2ccccc21	WPMY1-ACTB-RAB5A	1
CC1=Nc2ccc(Cl)cc2S(=O)(=O)N1 [diazoxide]	WPMY1-ACTB-RAB5A	0
CN(N=O)C(=O)N[C@@H](C=O)[C@@H](O)[C@H](O)[C@H](O)CO.CN(N=O)C(=O)N[C@H]1C(O)O[C@H](CO)[C@@H](O)[C@@H]1O [streptozotocin]	WPMY1-ACTB-RAB5A	0
COc1ccc2c3c1O[C@H]1C[C@@H](O)C=C[C@@]31CCN(C)C2 [galantamine]	WPMY1-ACTB-RAB5A	0

// batch mode: one phenotypically active value per listed entry
1. NC(=O)Nc1cc(-c2cccc(F)c2)sc1C(=O)N[C@H]1CCCNC1 [AZD 7762 hydrochloride]
2. C=C1C[C@@]23CCC4[C@@](C)(CCC[C@@]4(C)C(=O)O[C@@H]4O[C@H](CO)C(O)[C@H](O)C4O)C2CC[C@@]1(O[C@H]1O[C@H](CO)C(O)[C@H](O)[C@H]1O[C@@H]1O[C@H](CO)[C@@H](O)[C@H](O)[C@H]1O)C3 (stereo not given in full) [Stevioside]
3. CC(C)Cn1c(=O)n(C)c(=O)c2[nH]cnc21
4. O=c1cc(-c2ccc(O)cc2)oc2c(C3O[C@H](CO)[C@@H](O)[C@H](O)[C@H]3O)c(O)cc(O)c12 (stereo not given in full) [Vitexin]
5. COc1ccc(-c2noc(CSc3nnc(C)n3-c3ccc(OC)cc3)n2)cc1

Result:
[1, 0, 0, 0, 0]

* * *

system: WPMY1-GM130-SQSTM1; assay: phenotypically active (imaging signature differs from DMSO and reproducible) at any of 0.3-9 uM (binary (1 = active, 0 = inactive)); higher = active; details: treatment time: 24 h
Counter-ions that a name gives are not always drawn.
Hi there, I'd appreciate the recorded phenotypically active for every entry that follows.

Below are worked cases with known answers.
COMPOUND	RESULT
COc1ccc(C[C@H](N)C(=O)N[C@H]2[C@@H](O)[C@H](n3cnc4c(N(C)C)ncnc43)O[C@@H]2CO)cc1 [Puromycin dihydrochloride]	1 (active)
COc1ccc(S(=O)(=O)Nc2cccnc2Nc2ccc(O)cc2)cc1	1 (active)

Next item in the queue.
Request: Endpoint output: phenotypically active of `O=C(OC12CC3CC(CC(C3)C1)C2)c1ccc(NCc2cc(O)ccc2O)cc1` . Value?
Result: 1 (active)

* * *

tested on: HepG2-TUBA1B-RELA; assay: phenotypically active (imaging signature differs from DMSO and reproducible) at any of 0.3-9 uM (binary (1 = active, 0 = inactive)); higher = active; conditions: treatment time: 24 h
Counter-ions that a name gives are not always drawn.
Hi there, I'd appreciate the recorded phenotypically active for every entry that follows.

Below are worked cases with known answers.
COMPOUND	phenotypically active
Cc1nc(Nc2ncc(C(=O)Nc3c(C)cccc3Cl)s2)cc(N2CCN(CCO)CC2)n1	1 (active)
CC(C)[C@@H](C)/C=C/[C@@H](C)[C@H]1CC[C@H]2C3=CC=C4C[C@@H](O)CC[C@]4(C)[C@H]3CC[C@]12C	0 (inactive)
O=C1NCCN1CCN1CCC(c2cn(-c3ccc(F)cc3)c3ccc(Cl)cc23)CC1	1 (active)
Cc1cc2sc(NC(=O)Cc3ccccc3)nc2cc1Cl	0 (inactive)
C=C1CN(Cc2ccc(C(=O)Nc3ccccc3N)cc2)C(=O)c2ccccc21	1 (active)

// batch mode: one phenotypically active value per listed entry
1. CCC(=C(CC)c1ccc(O)cc1)c1ccc(O)cc1 (stereo in doubt)
2. O=C(Cn1ccnc1[N+](=O)[O-])NCc1ccccc1
3. CCCCCCCCCCNCCSSCc1ccc(Cl)cc1
4. C/C=C1\NC(=O)[C@H]2CSSCCC=C[C@H](CC(=O)N[C@H](C(C)C)C(=O)N2)OC(=O)[C@H](C(C)C)NC1=O
5. O=C(/C=C/c1ccc2ccccc2n1)c1ccncc1
6. Cc1cccc(C)c1OCC(=O)N[C@@H](Cc1ccccc1)[C@@H](O)C[C@H](Cc1ccccc1)NC(=O)[C@H](C(C)C)N1CCCNC1=O
7. COc1c(Cl)cc2c([nH]c3cnccc32)c1NC(=O)c1cccnc1C [ML 120B dihydrochloride]

Result:
1: 0 (inactive); 2: 0 (inactive); 3: 1 (active); 4: 1 (active); 5: 1 (active); 6: 1 (active); 7: 0 (inactive)

* * *

system: HepG2-CANX-COX4; test: phenotypically active (imaging signature differs from DMSO and reproducible) at any of 0.3-9 uM (binary (1 = active, 0 = inactive)); higher = active; conditions: treatment time: 24 h
Where a name gives a salt, the structure may show the parent alone.
Bench note: report the call from YES (active), NO (inactive)

MOLECULE	STUDY_SYSTEM	CATEGORY_LABEL
CCCc1cc2c(N3CCN(C4=NCC(C)(C)S4)CC3)ncnc2s1 [MI 2 dihydrochloride]	HepG2-CANX-COX4	YES
Cc1[nH]c(=O)c(C#N)cc1-c1ccncc1	HepG2-CANX-COX4	NO
Nc1nc(OCC2CCCCC2)c2nc[nH]c2n1	HepG2-CANX-COX4	NO
C[C@@H](CO)CCC[C@@H](C)[C@H]1CC[C@H]2[C@@H]3CC=C4C[C@@H](O)CC[C@]4(C)[C@H]3CC[C@]12C [27-Hydroxycholesterol]	HepG2-CANX-COX4	NO
COc1cc2ncnc(Oc3cccc(NC(=O)Nc4cc(C(C)(C)C(F)(F)F)on4)c3)c2cc1OC	HepG2-CANX-COX4	NO

Request: What did this assay record as the result for CC[C@H](CO)Nc1nc(Nc2cccc(-c3ccccn3)c2)c2ncn(C(C)C)c2n1 [(R)-DRF053 dihydrochloride] ?
Result: NO

Request: Then this molecule: COc1cc2c(cc1OC)C(=O)C(CC1CCN(Cc3ccccc3)CC1)C2 (stereo unspecified)
Result: NO

Request: Then this molecule: `CCc1cccc(CC)c1NC(=O)N1Cc2[nH]nc(NC(=O)c3ccc(N4CCN(C)CC4)cc3)c2C1`
Result: YES

Request: Then this molecule: `Cn1c(=O)c2[nH]cnc2n(C)c1=O`
Result: NO

Request: Then this molecule: `C#CCN[C@@H]1CCc2ccccc21`
Result: NO

Request: Then this molecule: `Cc1nc(=O)c2c([nH]1)CCSC2`
Result: NO

* * *

system: WPMY1-TP53BP1-CLTA; assay: phenotypically active (imaging signature differs from DMSO and reproducible) at any of 0.3-9 uM (binary (1 = active, 0 = inactive)); higher = active; details: treatment time: 24 h
MEASURED_PROPERTY: phenotypically active
Answers are plain numbers.

Below are worked cases with known answers.
COMPOUND	phenotypically active
N#Cc1c(C2CCNCC2)cc(-c2c(O)cccc2OCC2CC2)nc1N	1
CCN1CCN(C(c2cccnc2)c2cc(Cl)c3cccnc3c2O)CC1 (stereo not drawn)	1
COc1cc2c3cc1Oc1cc(ccc1O)C[C@@H]1c4c(cc(OC)c(O)c4Oc4ccc(cc4)C[C@@H]3N(C)CC2)CC[N+]1(C)C [(+)-Tubocurarine chloride]	0
N#Cc1ccccc1OCC(O)CNCCNC(=O)Nc1ccccc1 (stereo not drawn)	0
CC1=Nc2ccc(Cl)cc2S(=O)(=O)N1 [diazoxide]	0
COc1ccc(C2=N[C@H](c3ccc(Cl)cc3)[C@H](c3ccc(Cl)cc3)N2C(=O)N2CCNC(=O)C2)c(OC(C)C)c1	0
CC(C)C(=O)SCCCCC[C@H](NC(=O)OC(C)(C)C)C(=O)NC12CC3CC(CC(C3)C1)C2	0

Next item in the queue.
Request: Endpoint output: phenotypically active of `Clc1ccc2c(c1)C(N1CCNCC1)=Nc1ccccc1O2` . Value?
Result: 0

FYI, the data here is from the supplement of paper PMC7411054.
